Origin of measurements: patent US11691965B2

assay_explanation: In vivo pharmacokinetics study after single administration in rats
Parameters: species or system Sprague Dawley rats
experimental_context: Sprague Dawley, rat, plasma, 300 mg/kg; male rats, 300 mpk oral
metric_name: Tmax (h)
Response body: numeric value in h, unit text excluded.

What value of Tmax has been recorded for this entry: COCCN1C[C@@H](n2ccc(F)c2)[C@H](NC(=O)Nc2c(C)c(-c3cnc(C4(F)COC4)nc3)nn2-c2ccccc2)C1
1.5

---

assay_explanation: In vivo pharmacokinetics study after single administration in Beagle dogs
experimental_context: dog, plasma, 2 mg/kg; male Beagle dogs, 2 mpk intravenous injection; read-out: Vdss
metric_name: Vd (L/kg)
Express the result in L/kg but write the number alone.

Which measured Vd value corresponds to COCCN1C[C@@H](n2ccc(F)c2)[C@H](NC(=O)Nc2c(C)c(-c3cnc(C4(F)COC4)nc3)nn2-c2ccccc2)C1 ?
0.71
